# targetOrTestSystem: SYK (Homo sapiens)
pKi: −log10 of the molar value.

| moleculeSmiles | pKi |
| --- | --- |
| Fc1cccc(-c2cnoc2-c2c[nH]c3ncccc23)c1F | 6.00 to 6.70 |
| Nc1ccc(-c2cnc3[nH]cc(-c4oncc4-c4cccc(F)c4F)c3c2)cc1 | 6.00 to 6.70 |
| COc1cnc2[nH]cc(-c3oncc3-c3cccc(F)c3F)c2c1 | 4.90 to 6.00 |
| Fc1c(Cl)cccc1-c1cnoc1-c1c[nH]c2ncccc12 | 4.90 to 6.00 |
| Fc1cccc(-c2cnoc2-c2c[nH]c3ccccc23)c1F | 4.90 to 6.00 |
| Fc1ccc(F)c(-c2cnoc2-c2c[nH]c3ncccc23)c1F | 4.90 to 6.00 |
| Fc1cccc(-c2cnoc2-c2c[nH]c3ncc(-c4c[nH]cn4)cc23)c1F | 4.90 to 6.00 |
| c1ccc(-c2cnoc2-c2c[nH]c3ncccc23)cc1 | 4.90 to 6.00 |
| Fc1cccc(-c2cnoc2-c2c[nH]c3ncc(-c4cnc5[nH]ccc5c4)cc23)c1F | 6.00 to 6.70 |
| Oc1cnc2[nH]cc(-c3oncc3-c3cccc(F)c3F)c2c1 | 6.00 to 6.70 |
| Fc1cccc(-c2cnoc2-c2c[nH]c3ncc(-c4ccc(N5CCNCC5)cc4)cc23)c1F | 6.00 to 6.70 |
| CN(C)c1ccc(-c2cnc3[nH]cc(-c4oncc4-c4cccc(F)c4F)c3c2)cc1 | 4.90 to 6.00 |
